Attribution: patent US20200339625A1

Test system: mice bearing PSMA-expressing LNCAP cancer xenografts
Experiment: Biodistribution of 68Ga-labeled compounds
Assay type: in vivo
Conditions: 3 h post-injection
Please go through the items and note down their Bone uptake.
Reply numerically in % ID/g, unit not repeated.

Q: Which Bone uptake reading was recorded for the compound O=C([O-])CN1CCN(CC(=O)[O-])CCN(CC(=O)NCCCC[C@H](NC(=O)CNC(=O)CCCc2ccc(Cl)cc2)C(=O)NC[C@H]2CC[C@H](C(=O)N[C@@H](Cc3ccc4ccccc4c3)C(=O)NCCCC[C@H](NC(=O)N[C@@H](CCC(=O)O)C(=O)O)C(=O)O)CC2)CCN(CC(=O)[O-])CC1.[68Ga+3] [^68Ga-HTK03055] ?
Ans: 2.11

Q: Which Bone uptake reading was recorded for the compound O=C([O-])CN1CCN(CC(=O)[O-])CCN(CC(=O)NCCCC[C@H](NC(=O)CNC(=O)CCCc2ccc([N+](=O)[O-])cc2)C(=O)NC[C@H]2CC[C@H](C(=O)N[C@@H](Cc3ccc4ccccc4c3)C(=O)NCCCC[C@H](NC(=O)N[C@@H](CCC(=O)O)C(=O)O)C(=O)O)CC2)CCN(CC(=O)[O-])CC1.[68Ga+3] [^68Ga-HTK03089] ?
Ans: 0.15

Q: Which Bone uptake reading was recorded for the compound O=C([O-])CN1CCN(CC(=O)[O-])CCN(CC(=O)NCCCC[C@H](NC(=O)CNC(=O)CCCc2ccc(Br)cc2)C(=O)NC[C@H]2CC[C@H](C(=O)N[C@@H](Cc3ccc4ccccc4c3)C(=O)NCCCC[C@H](NC(=O)N[C@@H](CCC(=O)O)C(=O)O)C(=O)O)CC2)CCN(CC(=O)[O-])CC1.[68Ga+3] [^68Ga-HTK03058] ?
Ans: 1.54
